Target: T1, Biotinylated CD3-specific binding domain SEQ ID NO: 14 (biotinylated (site not stated))
T1 construct: Ligand on the neutravidin (NLC) SPR chip
T1 chain: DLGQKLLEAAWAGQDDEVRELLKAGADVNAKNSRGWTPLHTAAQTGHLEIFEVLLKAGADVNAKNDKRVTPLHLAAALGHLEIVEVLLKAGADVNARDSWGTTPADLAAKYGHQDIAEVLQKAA
Assay: SPR (ProteOn XPR36), 33 C, multi-trace; biotinylated ligand on chip, binder as analyte
Measured quantity: koff (s⁻¹)

Worked examples follow.
{"Binder": "Binder #2 (designed binder) MRGSHHHHHHGSDLGKKLLQAARAGQLDEVRELLKAGADVNAKDFKGLTPLHLAAAHGHLEIVEVLLKAGADVNAKDVYGWTPLHWAAASGHLEIVEVLLKAGADVNAKDWLGITPLHLAASHGHLEIVEVLLKAGADVNAQDKSGKTPADLAARAGHQDIAEVLQKAA", "Value observed": "2e-05"}
{"Binder": "Binder #1 (designed binder, expressed in E. coli and purified by its His-tag) MRGSHHHHHHGSDLGKKLLQAARAGQLDEVRELLKAGADVNAKDFKGLTPLHLAAAHGHLEIVEVLLKAGADVNAKDVYGWTPLHIAAASGHLEIVEVLLKAGADVNAKDWLGITPLHLAASHGHLEIVEVLLKAGADVNAQDKSGKTPADLAARAGHQDIAEVLQKAA", "Value observed": "2.7e-05"}

I = Binder #4 (designed binder) MRGSHHHHHHGSDLGKKLLQAARAGQLDEVRELLKAGADVNAKDFKGLTPLHLAAEHGHLEIVEVLLKAGADVNAKDVYGWTPLHWAAAKGHLEIVEVLLKAGADVNAKDWLGITPLHLAASHGHLEIVEVLLKAGADVNAQDKSGKTPADLAARAGHQDIAEVLQKAA
II = Binder #3 (designed binder) MRGSHHHHHHGSDLGKKLLQAARAGQLDEVRELLKAGADVNAKDFKGLTPLHLAAAHGHLEIVEVLLKAGADVNAKDVYGWTPLHWAAAKGHLEIVEVLLKAGADVNAKDWLGITPLHLAASHGHLEIVEVLLKAGADVNAQDKSGKTPADLAARAGHQDIAEVLQKAA
Which is greater in koff, the first item I or the second item II ? Answer format: the label of the selected item.
II
(II: 1.9e-05 s⁻¹, I: 1.2e-05 s⁻¹)
